molecular target: human recombinant ETB receptors (Homo sapiens); construct: expressed in transfected cells; host or cells: CHO cells (microsomal membranes); test: Inhibition of [125I]ET-1 binding to membranes from CHO cells carrying human ETB receptors
Sequence (P24530 27-442): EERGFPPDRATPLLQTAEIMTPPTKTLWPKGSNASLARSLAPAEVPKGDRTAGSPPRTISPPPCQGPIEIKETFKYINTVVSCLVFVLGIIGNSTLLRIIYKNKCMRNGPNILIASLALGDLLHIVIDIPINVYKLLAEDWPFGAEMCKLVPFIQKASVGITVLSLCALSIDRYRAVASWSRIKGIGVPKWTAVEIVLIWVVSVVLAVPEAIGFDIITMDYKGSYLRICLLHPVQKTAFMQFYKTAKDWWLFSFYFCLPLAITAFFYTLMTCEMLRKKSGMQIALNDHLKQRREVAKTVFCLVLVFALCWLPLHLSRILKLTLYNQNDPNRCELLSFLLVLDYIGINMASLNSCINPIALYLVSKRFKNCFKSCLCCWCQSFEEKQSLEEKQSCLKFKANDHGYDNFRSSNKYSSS
RECORDED METRIC: IC50

INSERT INTO assay_data (chemical_string, assay_system, recorded_metric, data_value) VALUES
  ('O=S(=O)(/C=C/c1ccccc1)Nc1nc(N2CCCCC2)nc(OCCOc2ncc(Br)cn2)c1-c1ccccc1', 'human recombinant ETB receptors (Homo sapiens)', 'IC50', '> 10 µM'),
  ('Cc1ccc(-c2c(NS(=O)(=O)/C=C/c3cccs3)nc(-c3ncccn3)nc2OCCOc2ncc(Br)cn2)cc1', 'human recombinant ETB receptors (Homo sapiens)', 'IC50', '2.38 µM'),
  ('COc1ccccc1Oc1c(NS(=O)(=O)/C=C/c2ccsc2)nc(-c2ccncc2)nc1OCCOc1ncccn1', 'human recombinant ETB receptors (Homo sapiens)', 'IC50', '1.03 µM'),
  ('COc1ccccc1Oc1c(NS(=O)(=O)/C=C/c2ccccc2)nc(N2CCOCC2)nc1OCCOc1ncc(F)cn1', 'human recombinant ETB receptors (Homo sapiens)', 'IC50', '0.427 µM'),
  ('Cc1ccc(-c2c(NS(=O)(=O)/C=C/c3cccs3)ncnc2OCCOc2ncc(Cl)cn2)cc1', 'human recombinant ETB receptors (Homo sapiens)', 'IC50', '1.65 µM'),
  ('Cc1ccc(-c2c(NS(=O)(=O)/C=C/c3ccccc3)ncnc2OCCOc2ncc(Br)cn2)cc1C', 'human recombinant ETB receptors (Homo sapiens)', 'IC50', '0.629 µM'),
  ('COc1ccc(-c2c(NS(=O)(=O)/C=C/c3ccccc3)ncnc2OCCOc2ncc(OC)cn2)cc1', 'human recombinant ETB receptors (Homo sapiens)', 'IC50', '0.735 µM'),
  ('COc1ccccc1Oc1c(NS(=O)(=O)/C=C/c2ccccc2)nc(-c2ccncc2)nc1OCCOc1ncc(Br)cn1', 'human recombinant ETB receptors (Homo sapiens)', 'IC50', '2.28 µM'),
  ('COCCOc1nc(NS(=O)(=O)/C=C/c2ccccc2)c(-c2ccccc2)c(OCCOc2ncc(Br)cn2)n1', 'human recombinant ETB receptors (Homo sapiens)', 'IC50', '> 10 µM'),
  ('COc1cnc(OCCOc2nc(-c3ccncc3)nc(NS(=O)(=O)/C=C/c3ccsc3)c2Oc2ccccc2OC)nc1', 'human recombinant ETB receptors (Homo sapiens)', 'IC50', '0.699 µM'),
  ('COc1cnc(OCCOc2nc(-c3ncccn3)nc(NS(=O)(=O)/C=C/c3cccs3)c2-c2ccc(C)cc2)nc1', 'human recombinant ETB receptors (Homo sapiens)', 'IC50', '3.53 µM'),
  ('Cc1ccc(-c2c(NS(=O)(=O)/C=C/c3ccc(Cl)cc3)ncnc2OCCOc2ncc(Br)cn2)cc1', 'human recombinant ETB receptors (Homo sapiens)', 'IC50', '0.193 µM'),
  ('COc1ccccc1Oc1c(NS(=O)(=O)/C(C)=C/c2ccccc2)nc(N2CCOCC2)nc1OCCOc1ncc(Br)cn1', 'human recombinant ETB receptors (Homo sapiens)', 'IC50', '0.349 µM'),
  ('Cc1ccc(-c2c(NS(=O)(=O)/C=C/c3cccs3)nc(-c3ncccn3)nc2OCCOc2ncc(C)cn2)cc1', 'human recombinant ETB receptors (Homo sapiens)', 'IC50', '> 10 µM'),
  ('Cc1ccc(/C=C/S(=O)(=O)Nc2ncnc(OCCOc3ncc(Cl)cn3)c2-c2ccc(C)cc2)cc1', 'human recombinant ETB receptors (Homo sapiens)', 'IC50', '0.657 µM'),
  ('COc1ccc(-c2c(NS(=O)(=O)/C=C/c3ccccc3)ncnc2OCCOc2ncc(Cl)cn2)cc1', 'human recombinant ETB receptors (Homo sapiens)', 'IC50', '1.63 µM'),
  ('COc1cnc(OCCOc2nc(-c3ccncc3)nc(NS(=O)(=O)/C=C/c3ccccc3)c2-c2ccc(C)cc2)nc1', 'human recombinant ETB receptors (Homo sapiens)', 'IC50', '7.59 µM'),
  ('O=S(=O)(/C=C/c1ccc(Cl)cc1)Nc1ncnc(OCCOc2ncc(Br)cn2)c1-c1ccc(Cl)cc1', 'human recombinant ETB receptors (Homo sapiens)', 'IC50', '0.183 µM');
